Test: Quantitative High-Throughput drug screen in 47 multiple myeloma cell lines against the NCATS MIPE library collection: KMS26_JCRB cell viability assay (AID 1918975); note: nearly all actives have a fitted effect of over 45% in size; note: potency is the fitted concentration of half-maximal effect
Conditions: KMS26 myeloma cells viability, CellTiter-Glo ATP, 48 h; series mostly up to 45.8 µM
Results filed as inconclusive are left out. Active and inactive are the calls of the source. Calls come from the whole dose curve; as a rule, active = well fitted cell-killing curve with a large enough effect; inconclusive = small, poorly fitted or top-dose-only effect, or effect the other way; inactive = no such curve, though single readings can be large or run the other way.
endpoint-name: Potency

1. CCN(CC)C(=S)SSC(=S)N(CC)CC: 0.0105 µM (active)
2. CN(C)CCc1c[nH]c2ccc(Cn3cncn3)cc12: inactive
3. COc1cc(Nc2c(C#N)cnc3cc(OCCCN4CCN(C)CC4)c(OC)cc23)c(Cl)cc1Cl: 18.7 µM (active)
4. Cc1cc(=O)oc2cc(O)ccc12: inactive
5. CN(C)CCCC1(c2ccc(F)cc2)OCc2cc(C#N)ccc21 (configuration not stated): inactive
6. CNC[C@H](O)c1ccc(O)c(O)c1: 10.8 µM (active)
7. C[C@@H](c1ncncc1F)[C@](O)(Cn1cncn1)c1ccc(F)cc1F: inactive
8. CC(C)C[C@H](NC(=O)[C@H](Cc1ccccc1)NC(=O)c1cnccn1)B(O)O: 0.0148 µM (active)

# molecule `Oc1ccc2ccccc2c1SSc1c(O)ccc2ccccc12` ; its Potency = 9.35 µM (active)

# molecule `CCOC(=O)c1c(C)n(C)c2ccc(O)cc12` ; its Potency = inactive

# molecule COC(=O)C1=C(C)NC(C)=C(C(=O)OC(C)C)C1c1cccc2nonc12 (configuration not stated) ; its Potency = inactive

# molecule `NC(=O)Cc1cccc(C(=O)c2ccccc2)c1N` ; its Potency = inactive

====

Experiment: qHTS of pediatric cancer cell lines to identify multiple opportunities for drug repurposing: Primary screen for BT-12 cells (AID 1347101); note: nearly all actives have a fitted effect of over 25% in size
Settings: BT-12 viability, CellTiter-Glo luminescence, 48 h; series mostly up to 57.3 µM
Records with an inconclusive call do not appear. Active and inactive are the calls of the source. Calls come from the whole dose curve; as a rule, active = well fitted cell-killing curve with a large enough effect; inconclusive = small, poorly fitted or top-dose-only effect; inactive = flat fitted curve, though single readings scatter. Non-standard residues stand in square brackets, D forms with d. Residues, ends and D or L forms follow the SMILES beside them. *: point of attachment. Sta = CC(C)C[C@H](N)[C@@H](O)CC(=O)O; Isovaleryl = CC(C)CC(=O)*
# valid calls are active, inactive; nothing else

In this assay, the call recorded for `Cc1ccc(C(=O)c2cc(O)c(O)c([N+](=O)[O-])c2)cc1` was what?
inactive

In this assay, the call recorded for Cc1c(OCC(F)(F)F)ccnc1CS(=O)c1nc2ccccc2[nH]1 (stereo not drawn) was what?
inactive

In this assay, the call recorded for `CN1C(C(=O)Nc2ccccn2)=C(O)c2sccc2S1(=O)=O` was what?
inactive

In this assay, the call recorded for `Cc1cc(=O)oc2cc(O)ccc12` was what?
inactive

In this assay, the call recorded for `CCOC(=O)C1=C[C@@H](OC(CC)CC)[C@H](NC(C)=O)[C@@H](N)C1` was what?
inactive

In this assay, the call recorded for `O=C1NC(=O)C(c2ccccc2[N+](=O)[O-])=C1Nc1ccc(O)c(Cl)c1` was what?
inactive

In this assay, the call recorded for `COc1cc(Nc2c(C#N)cnc3cc(OCCCN4CCN(C)CC4)c(OC)cc23)c(Cl)cc1Cl` was what?
active

In this assay, the call recorded for `Cn1c(NCCN(CCO)CCCc2ccc([N+](=O)[O-])cc2)cc(=O)n(C)c1=O` was what?
inactive

In this assay, the call recorded for `CCCCCCCCOc1ccccc1C(=O)Nc1ccc(C(=O)OCC[N+](C)(CC)CC)cc1` was what?
active

In this assay, the call recorded for `O=Nc1c(-c2c(O)[nH]c3cc(Br)ccc23)[nH]c2ccccc12` was what?
active

In this assay, the call recorded for Cc1ccc(S(=O)(=O)NC(=O)NN2CC3CCCC3C2)cc1 (stereo not drawn) was what?
inactive

In this assay, the call recorded for CCC(C)(Oc1ccc(C2(c3ccc(OC(C)(CC)C(=O)O)cc3)CCCCC2)cc1)C(=O)O (stereo not drawn) was what?
inactive

In this assay, the call recorded for CN(C)CCCC1(c2ccc(F)cc2)OCc2cc(C#N)ccc21 (stereo not drawn) was what?
inactive

In this assay, the call recorded for CC1=C(C)C(=O)C(C(CCCCCC(=O)O)c2ccccc2)=C(C)C1=O (stereo not drawn) was what?
inactive

In this assay, the call recorded for `CCCc1cc(=O)[nH]c(=S)[nH]1` was what?
inactive

In this assay, the call recorded for `O=C(O)c1cc(=O)c2c(OCC(O)COc3cccc4oc(C(=O)O)cc(=O)c34)cccc2o1` was what?
inactive

In this assay, the call recorded for `CC1=C(C(=O)O)N2C(=O)[C@@H](NC(=O)[C@H](N)C3=CCC=CC3)[C@H]2SC1` was what?
inactive

In this assay, the call recorded for `CCN(CC)CCOc1ccc(Cc2ccccc2)cc1` was what?
inactive

In this assay, the call recorded for `c1cnc2cc3c(cc2n1)C1CNCC3C1` was what?
inactive

In this assay, the call recorded for `NNc1nncc2ccccc12` was what?
inactive

In this assay, the call recorded for `Cc1cc2c(s1)Nc1ccccc1N=C2N1CCN(C)CC1` was what?
inactive

In this assay, the call recorded for `O=C(O)c1cn(-c2ccc(F)cc2)c2cc(N3CCNCC3)c(F)cc2c1=O` was what?
inactive

In this assay, the call recorded for CC1Cc2ccccc2N1NC(=O)c1ccc(Cl)c(S(N)(=O)=O)c1 (stereo not drawn) was what?
inactive

In this assay, the call recorded for `CC(C)[C@H](N)C(=O)OCCOCn1cnc2c(=O)[nH]c(N)nc21` was what?
inactive

In this assay, the call recorded for `C[C@H](Cn1cnc2c(N)ncnc21)OCP(=O)(O)O` was what?
inactive

In this assay, the call recorded for `Nc1ccc(S(N)(=O)=O)cc1` was what?
inactive

In this assay, the call recorded for `CCC[C@@H]1C[C@@H](C(=O)N[C@@H]([C@H]2O[C@H](SC)[C@H](O)[C@@H](O)[C@H]2O)[C@@H](C)O)N(C)C1` was what?
inactive

In this assay, the call recorded for `CS(=O)(=O)OCCCCOS(C)(=O)=O` was what?
inactive

In this assay, the call recorded for C[C@@H](N)C1CCC(C(=O)Nc2ccncc2)CC1 (stereo partly drawn) was what?
inactive

In this assay, the call recorded for `O=C(CCc1ccc(O)cc1)c1c(O)cc(O)cc1O` was what?
active

In this assay, the call recorded for `NC(=NCc1ccccc1)NC(=O)c1nc(Cl)c(N)nc1N` was what?
inactive

In this assay, the call recorded for `COc1c2occc2cc2ccc(=O)oc12` was what?
inactive

In this assay, the call recorded for O=C(CS(=O)Cc1ccco1)NCC=CCOc1cc(CN2CCCCC2)ccn1 (stereo not drawn) was what?
inactive

In this assay, the call recorded for `C[C@H](Cc1ccc(O)c(O)c1)[C@@H](C)Cc1ccc(O)c(O)c1` was what?
active

In this assay, the call recorded for `Cc1cc(O)c2c(c1)C(=O)c1cc(O)cc(O)c1C2=O` was what?
inactive

In this assay, the call recorded for COc1cc2nc(N3CCN(C(=O)C4CCCO4)CC3)nc(N)c2cc1OC (stereo not drawn) was what?
inactive

In this assay, the call recorded for CC(C)CC(=O)N[C@H](C(=O)N[C@H](C(=O)N[C@@H](CC(C)C)[C@@H](O)CC(=O)N[C@@H](C)C(=O)N[C@@H](CC(C)C)[C@@H](O)CC(=O)O)C(C)C)C(C)C (Isovaleryl-VV[Sta]A[Sta]-OH) was what?
inactive

In this assay, the call recorded for CCOC(=O)C(C)Oc1cccc2c(=O)n(CC(=O)Nc3ccc4c(c3)OCCO4)ccc12 (stereo not drawn) was what?
inactive

In this assay, the call recorded for `NS(=O)(=O)c1cc(C(=O)O)c(NCc2ccco2)cc1Cl` was what?
inactive

In this assay, the call recorded for CCC1=C(C)CN(C(=O)NCCc2ccc(S(=O)(=O)NC(=O)NC3CCC(C)CC3)cc2)C1=O (stereo not drawn) was what?
inactive

In this assay, the call recorded for `Cc1cccc(-c2[nH]ncc2-c2ccc3ncccc3n2)n1` was what?
inactive

In this assay, the call recorded for `COc1ccc2cc([C@H](C)C(=O)O)ccc2c1` was what?
inactive

In this assay, the call recorded for `Nc1cc(C(Cl)=C(Cl)Cl)c(S(N)(=O)=O)cc1S(N)(=O)=O` was what?
inactive
